biological target: Fibroblast growth factor 10 (Homo sapiens); assay: FGF10 binders on small-molecule microarrays, primary screen, biochemical, small-molecule microarray, 635 nm fluorescence (AID 1102); conditions: FGF10 binding, fluorescence 635 nm, higher = more signal
Where composite z-score equals or exceeds 0.2, the correct label is criterion met; where it does not, the label is criterion not met.

Example entries and their recorded answers appear below.
smiles_str=CC(CCC(=O)OC[C@H]1O[C@H](C#Cc2ccccc2)C=C[C@@H]1Oc1ccc(C)cc1)=NO[C@H](C)c1cn([C@H](CO)Cc2ccccc2)nn1 category_label="criterion not met"
smiles_str=COCOc1ccc(Br)cc1C(=O)[C@@H]1O[C@H]1c1cccc(OC)c1 category_label="criterion not met"

Attention now shifts to the item below.
Asked: Threshold query (composite z-score >= 0.2) on O=C(NN=C1C[C@@H](O)[C@@H](O)[C@@H]2[C@@H]3C(=O)N(C4CCCCC4)C(=O)[C@@H]3CC[C@H]12)OCc1ccccc1
Given back: criterion met

---

molecular target: Fibroblast growth factor 2 (Homo sapiens); experiment: FGF2 binders on small-molecule microarrays, primary screen, biochemical, small-molecule microarray, 635/667 nm fluorescence (AID 1133); conditions: small-molecule microarray binding, FGF2, fluorescence 635/667; higher = more signal
readout name: composite z-score
Give bare numbers.

Observe how each entry below is paired with its result.
molecule=CC(C)(C)N1C(=O)[C@H]2[C@H]3[C@H](O)C=CC(=O)[C@@H]3CC[C@H]2C1=O result_number=0.255
molecule="CCOC(=O)[C@H](Cc1ccccc1)NC(=O)CCC1CC(OC(=O)NCc2cccc3ccccc23)CC2(CCCC(COC(=O)NCC(c3ccccc3)c3ccccc3)O2)O1 (some centres not stated)" result_number=0.39
molecule="CCOC(=O)[C@H](CC(C)C)NC(=O)CCC1CC(OC(=O)NCc2cccc3ccccc23)CC2(CCCC(COC(=O)NCCOc3ccccc3)O2)O1 (some centres not stated)" result_number=0.373
molecule=CCCNC(=O)OC[C@H]1O[C@H](c2ccccc2)C=C[C@@H]1Oc1ccc(OC)cc1 result_number=-0.179
molecule=COC(=O)CC=C[C@@H](C)[C@@H](C=NO[C@H](C)c1cn([C@H](CO)Cc2ccccc2)nn1)OC result_number=0.827
molecule=CC(C)(C)N1C(=O)[C@H]2[C@H]3[C@H](O)[C@H](O)CC(=NOCc4ccccc4)[C@H]3CC[C@H]2C1=O result_number=-0.34

Now take the following molecule into account.
Asked: Name the reported composite z-score value associated with the molecule CC(=O)OC[C@H]1OC(ON=CC[C@@H]2C=C[C@H](OC(C)=O)[C@@H](COC(C)=O)O2)[C@H](OC(C)=O)[C@@H](OC(C)=O)[C@@H]1OC(C)=O (some centres not stated)
Given back: 0.0994

---

test system: Sam68 (KHDRBS1); assay: Sam68 small-molecule binders, primary screen, biochemical, small-molecule microarray, 635 nm fluorescence (AID 1125); settings: small-molecule microarray binding, higher = more signal;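 further: score merges 667 nm channel intensity with signal to noise over triplicate slides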
Hi, to clarify the labels: 1.0 covers composite z-score from 0.3 upward, 0.0 covers anything below 0.3.

Solved cases below.
smiles_str=COC(=O)CC=C[C@@H](C)[C@@H](C=NO[C@H](C)c1cn([C@@H]2COC[C@H]2O)nn1)NS(=O)(=O)c1ccc(C)cc1 experimental_target="Sam68 (KHDRBS1)" category_label=0.0
smiles_str=CCCNC(=O)OC[C@H]1O[C@H](CCON=C(C)C)C=C[C@@H]1Oc1ccc(OC)cc1 experimental_target="Sam68 (KHDRBS1)" category_label=0.0
smiles_str=COC(=O)C1=C(C)N(Cc2ccccc2)[C@]23O[C@](C(=O)OC)(C(=O)N2[C@@H]1c1ccccc1)C(C(=O)OC)=C3C(=O)OC experimental_target="Sam68 (KHDRBS1)" category_label=1.0
smiles_str=CCOC(=O)NN=C1C[C@@H](O)[C@@H](O)[C@@H]2[C@@H]3C(=O)N(C(C)(C)C)C(=O)[C@@H]3CC[C@H]12 experimental_target="Sam68 (KHDRBS1)" category_label=0.0
smiles_str=COc1cccc([C@@H]2Oc3ccc(OC)cc3C(=O)[C@H]2O)c1 experimental_target="Sam68 (KHDRBS1)" category_label=1.0

Now, please, on to the next compound.
Asked: Form field: composite z-score at least 0.3? Entry: CCN1C(=O)[C@H]2[C@H]3[C@H](O)[C@H](O)CC(=NOC[C@H]4O[C@H](c5ccccc5)C=C[C@@H]4Oc4ccc(OC)cc4)[C@@H]3CC[C@H]2C1=O
Given back: 1.0
